Values compiled from the DeepSol protein solubility set.

Test: soluble on expression in E. coli; label from the status in PepcDB or PDB records
Result type: soluble on expression in E. coli

Recorded results for 6 sequences are shown here.
- Residue sequence: "MNTLIPISEQTVGQETVQTVNARDLHAFLEVKTSFKDWIIRRIQDCKFKEGYDFCSFLSESSGGRPSKEYHITLDMAKHLSMIERNDKGHEARQYFNFLFDNMSVLCLLSNQVPQKHLKYTAGRLPKQSLLRTLKALTHYMLVAYKWLVGCGYAIQYPRGESVTTDCVPCF"
  soluble on expression in E. coli: "soluble"
- Residue sequence: "FLYSNTSYRTLYLAAILYKAKADIRIVHDHLNHTSLADLKFKKYVYNHFKTQGQVIYFICTKKIQKRLRMTADQCARVNLLSNIAD"
  soluble on expression in E. coli: "soluble"
- Residue sequence: "MRVFALQLESFKENLMQSLFNSIPKKSVIVLPEYVINPFFHHNMGLDVNEISDQSARAVEFLSQKCEELDLIVSAPVLLEEHSKIYKKIALISKESVKYYTQQRLIPYPHWDEESFFDNEKSAFKELLVFERDGLKFAPLFGFEAHFDEIWVQAKNQGVDVVLLSSVATFESNERWRLLCQMRAFCASCVVVRANRIGAYRQIIVEEDQKNEFLWKFYGDSFVALPNGAIEDSLEGKMGALNAQIDKNDIDEWAKLWHFRTIKEGLEHHHHHH"
  soluble on expression in E. coli: "not soluble"
- Residue sequence: "MYYAIPTVVVSECLGFSACRYNGDIIRNSFVSRLGEFARLVPVCPEVAIGLGVPRETVRLVKRGEERRLVQSSTNRDWTREMNEFATSFFGQVGEVDGFILKGRSPTCGIKDVRVYDDEESGMVVEKGVGLFAEHVFRRFPNAAIEEEGRLTNAAIREHFLTKVFALALFREVKAKRSMKALVQFHSEHKYLFMAYSQTWLKQLGRLVANRDRLPVEQVLEAYGQGLHALFARAPQRRSHVNVCQHLMGYFKKEMSAKEKQYVLELLAQYRAQQLPLSSVASVLKSWAIREENDYLLQQRYFAPYPPALLDVRDSGKGREKAV"
  soluble on expression in E. coli: "not soluble"
- Residue sequence: "MFTKSHLALVIGAVLAAPAVANVQTDEHLVVEGREFGYKADTNSTAMRMEMTQLETPGQVAVIDETVIDEQRASTLGEVLRNDASVSAGGTSRNRERFSLRGFELSSSDGFLRDGRQHWSHYRQPIEL"
  soluble on expression in E. coli: "not soluble"
- Residue sequence: "PRVVFIDEQSGEYAVDAQDGQSLMEVATQNGVPGIVAECGGSCVCATCRIEIEDAWVEIVGEANPDENDLLQSTGEPMTAGTRLSCQVFIDPSMDGLIVRVPLPA"
  soluble on expression in E. coli: "soluble"

Now, please, on to the next sequence.
Briefly, soluble on expression in E. coli measured for `AVVASLKPVGFIASAIADGVTETEVLLPDGASEHDYSLRPSDVKRLQNADLVVWVGPEMEAFMQKPVSKLPGAKQVTIAQLEDVKPLLMKSIHGDDDDHDHAEKSDEDHHHGDFNMHLWLSPEIARATAVAIHGKLVELMPQSRAKLDANLKDFEAQLASTETQVGNELAPLKGKGYFVFHDAYGYFEKQFGLTPLGHFTVNPEIQPGAQRLHEIRTQLVEQKATCVFAEPQFRPAVVESVARGTSVRMGTLDPLGTNIKLGKTSYSEFLSQLANQYASCLKGD` : soluble

====

Assay: soluble on expression in E. coli; label from the status in PepcDB or PDB records
Result type: soluble on expression in E. coli

Examples from the recorded data:
- Residue sequence: "SMIPDFMSFTSHIDELYESAKKQSGGKVADYIPQLAKFSPDLWGVSVCTVDGQRHSTGDTKVPFCLQSCVKPLKYAIAVNDLGTEYVHRYVGKEPSGLRFNKLFLNEDDKPHNPMVNAGAIVVTSLIKQGVNNAEKFDYVMQFLNKMAGNEYVGFSNATFQSERESGDRNFAIGYYLKEKKCFPEGTDMVGILDFYFQLCSIEVTCESASVMAATLANGGFCPITGERVLSPEAVRNTLSLMHSCGMYDFSGQFAFHVGLPAKSGVAGGILLVVPNVMGMMCWSPPLDKMGNSVKGIHFCHDLVSLCNFHNYDNL"
  soluble on expression in E. coli: "soluble"
- Residue sequence: "TNVISTLDLNLLTKGGGSWNVDGVNMKKSAVTTFDGKRVVKAVYDKNSGTSANPGVGGFSFSAVPDGLNKNAITFAWEVFYPKGFDFARGGKHGGTFIGHGAASGYQHSKTGASNRIMWQEKGGVIDYIYPPSDLKQKIPGLDPEGHGIGFFQDDFKNALKYDVWNRIEIGTKMNTFKNGIPQLDGESYVIVNGKKEVLKRINWSRSPDLLISRFDWNTFFGGPLPSPKNQVAYFTNFQMKKYELEHHHHHH"
  soluble on expression in E. coli: "soluble"
- Residue sequence: "MGSDKIHHHHHHMRHLKAFYVFHVTAESSNYSKAAEKLHITHGAVSKQIKLLESHLSQMLFYKQGRGMCLTQEGELLKQYTDIAFNALDNGIKKLTRESNKHLEVSCEPTLTMRWLMPRLASFFRLTGIDVRLSTAGGPVDLNETGLSLAIRRDDFDISPEYTAHNLVNEWVGPVFSPEYWRKSQNNLGDIVLLHSETRPSAWSDWSSRSKHTFYTNKSKSFEHFYFCLQAAVDGLGAAIGSYPLIVDDLKSGRLVAPFGFTQSGHKYVLLSHTERLGSNELEFLTWLEKTMSLCQPETP"
  soluble on expression in E. coli: "not soluble"
- Residue sequence: "MAHHHHHHMMRIKQKAFVGKKICIAWEVLHDGKGWKAQGKALQILRFYAFSSEVYLMCRIRDADDKKQICNLVKAVDGIERHRVLFCTTEKGYEAFTRQIDPSLLITNNAAQVAFLKRVIQTLVLVGGDGVVASNVACVPSVEAIAVDLE"
  soluble on expression in E. coli: "not soluble"
- Residue sequence: "MGSDKIHHHHHHMLMGSKDKVISILKEKGPISQTELSKLSGLSKSRLSEVLSELEKQGIVKRRKVLGKNLEVSLSQDRFLRLGIIRAAEYPFIIPFIKNLENRGYSVTVKIYENGIDLTRDLVEAKLDLGLSPIITQIIFSTIYRNIRIIGGGAKGGGGIIGKTCNRIASTVMSSMEIWAFSEFKNIEIIPSYSSYEMLDFLEKGIVDGIAIWEPFLSILERKGHKVHRFTPLHCCTLAVRETMDWERIKNIYEESFSWFKSSIDRWVSSYSNLLNIDYNILKEASKNYEFDYYLDLKEFKNSLKNTGIFIPI"
  soluble on expression in E. coli: "not soluble"

From here, focus on the item given below.
// sample `MKSKLKLHGFNNLTKTLSFNIYDICYAETPEDLQAYVQYIDEEYDAERLTQILTDVVDIIGANILNIARQDYDPQGASVTILISEQPVTPTDSQIEESPGPLPDTILAHLDKSHITVHTYPEIHPVDGIATFRVDIDVSTCGVISPLKALNYLIHQFDSDIVTVDYRVRGFTRDIEGRKHFIDHEINSIQNYLSDDTREAYQMTDVNVYQENLFHTKMLLKDFELENYLFGDATRTLSAEQREQVTERLKHEMLEIFYARNMPR` , its soluble on expression in E. coli was not soluble

====

Assay: soluble on expression in E. coli; label from the status in PepcDB or PDB records
Result type: soluble on expression in E. coli

Worked cases, answers included:
- Residue sequence: "MAGYGAKGIRKVGAFRSGLEDKVSKQLESKGIKFEYEEWKVPYVIPASNHTYTPDFLLPNGIFVETAGLWESDDRKKHLLIREQHPELDIRIVFSSSRTKLYKGSPTSYGEFCEKHGIKFADKLIPAEWIKEPKKEVPFDRLKRKGGKK"
  soluble on expression in E. coli: "soluble"
- Residue sequence: "MGSDKIHHHHHHMQALQTFNFEELPVRTLEVDGEPYFIGKDVADILGYANGRDALSKHVDEDDKKVLTSRNTTLENLPNRGLTAVNESGLYSLIFSSKLESAKRFKRWVTSDVLPAIRKYGIYATDNVIEQTLKDPDYIITVLTEYKKEKEQNLLLQQEIGELKPKADYVDEILKSTGTLATTQIAADYGISAQKLNKLLHEARLQRKVNKQWVLYSEHMGKSYTDSDTITIVRSDGREDTVLQTRWTQKGRLKIHEIMTEFGYEANLGGA"
  soluble on expression in E. coli: "not soluble"
- Residue sequence: "MAVNVYSTSVTSDNLSRHDMLAWINESLQLNLTKIEQLCSGAAYCQFMDMLFPGSIALKKVKFQAKLEHEYIQNFKILQAGFKRMGVDKIIPVDKLVKGKFQDNFEFVQWFKKFFDANYDGKDYDPVAARQGQETAVAPSLVAPALNKPKKPLTSSSAAPQRPISTQRTAAAPKAGPGVVRKNPGVGNGDDEAAELMQQVNVLKLTVEDLEKERDFYFGKLRNIELICQENEGENDPVLQRIVDILYATDEGFVIPDEGGPQEEQEEY"
  soluble on expression in E. coli: "soluble"
- Residue sequence: "MDVEVKNKANRRHVGHNLQKIRVYFGMKQEALAADLGVNQQVISKIEKQEEIEEGLLNQIASVLGISAEVIKDFDVEKAIYNINNIRDNTFEQGATSIAQQFNPLDKIVELYERLLQSEREKIELLKKR"
  soluble on expression in E. coli: "not soluble"
- Residue sequence: "MNVFQMRDKLKARLKHLDVEFKFDREEETLRIVRIDNHKGVTIKLNAIVAKYEEQKEKIIDEICYYVEEAIAQMGDEVINNVEDIQIMPVIRATSFDKETKEGHAFVLTEHTAETNIYYALDLGKSYRLIDENMLQTLNLTAQQVKEMSLFNVRKLECRYSTDEVKGNIFYFINTNDGYDASRILNTSFLNHIQHQCEGEMLVGVPHQDVLILADIRNKTGYDVMAHLTMEFFTKGLVPITSLSFGYDNGHLEPIFILGKNNKQK"
  soluble on expression in E. coli: "not soluble"

Each of the following entries comes with a recorded value; kindly state soluble on expression in E. coli for each.
1. MRVLFIGDVMAEPGLRAVGLHLPDIRDRYDLVIANGENAARGKGLDRRSYRLLREAGVDLVSLGNHAWDHKEVYALLESEPVVRPLNYPPGTPGKGFWRLEVGGESLLFVQVMGRIFMDPLDDPFRALDRLLEEEKADYVLVEVHAEATSEKMALAHYLDGRASAVLGTHTHVPTLDATRLPKGTLYQTDVGMTGTYHSIIGGEVETFLARFLTGRPQPFRAAQGKARFHATELVFEGGRPVAISPYVWEEP
2. LSQEETELELLRQFDLAWQYGPCTGITRLQRWHRAEQMGLKPPVEVYQVLKTHPEDSRFQCSLWHLYPL

a:
1: soluble; 2: not soluble

Can you give me soluble on expression in E. coli for all of these, one by one?
1. MSNTQKKNVPELRFPGFEGEWEEKKLGNLTTKIGSGKTPKGGSENYTNKGIPFLRSQNIRNGKLNLNDLVYISKDIDDEMKNSRTYYGDVLLNITGASIGRTAINSIVETHANLNQHVCIIRLKKEYYYNFFGQYLLSRKGKRKIFLAQSGGSREGLNFKEIANLKIFTPTIFEEQQKIGKFFSKLDRQIELEEQKLELLQQQKKGYMQKIFTQELRFKDENGEEYPEWENKFIKDIFIFENNRRKPITSSLREKGLYPYYGATGIIDYVKDYLFNNEERLLIGEDGAKWGQFETSSFIANGQYWVNNHAHVVKSNDHNLFFMNYYLNFKELRAFVTGNAPAKLTHANLCNINLKIPCLTEQDKVSALLKSIDNKMNNQMNRIELLKERKKGLLQKMFI
2. MAATARRGWGAAAVAAGLRRRFCHKLKNPYTIKKQPLHQFVQRPLFPLPAAFYHPVRYMFIQTQDTPNPNSLKFIPGKPVLETRTMDFPTPAAAFRSPLARQLFRIEGVKSVFFGPDFITVTKENEELDWNLLKPDIYATIMDFFASGLPLVTEETPSGEAGSEEDDEVVAMIKELLDTRIRPTVQEDGGDVIYKGFEDGIVQLKLQGSCTSCPSSIITLKNGIQNMLQFYIPEVEGVEQVMDDESDEKEANSP
3. MGSDKIHHHHHHMAERVLVPTQIGRGDRYYTYTELLAISRRFKQNPNELMVTWILRVYDQGGPALSLNSGELGLLGDLTHDAIFNYRCKALRGAGCQTLLSWLLQAWRQRWESSLHFEATELPFRPWTTMEEGIQLVRELGMIEWIYLDPEGPVDLAPEDVAFTQGLQRRLLTAAPSELRLSLVSLLVRGMTVLEAVMEIQTIADVGLLWRQSHPGRTKLMLGPNPTRKDLLGWLLSHGVPREQVDRQPTKVLLELYIKEAKRSRGHPNYGLNEEQPPPPPYSDQACGEEQPVRHD
4. MGSDKIHHHHHHMNQFKMSLFLPPISPVKDSATGRTVQPPTLTPYKEITLQEVYKLITSSERLKTLTETVRRAAENGDEKAYRMLKQQTLPYVTPCGVFSYRKSDSLTGPSGLIVVDIDHLDSRGEAEKLKRQLFDDRLLRPVLAFTSPGGRGVKAFIPYDLARIPDTRQNTSENIHWAMNYVQAIYDSHPDGEDKKTSRSGKGVDRSGKDLVRACFLSYDEEALIRREI
5. MGKLAADQLTLSYDSTVIIDGVDLKIEEGKITALIGANGCGKSTILKSLARLMAPKSGTVLLEGKDIHRQPSKEVAKKLAILPQSPQAPEGLTVEELCYFGRHPHKKLLSKHTQEDHDMVEWALEATGMIELKDRTLDALSGGQRQRAWISMALAQGTDLLLLDEPTTYLDISHQIEVLELLKKLNRDHGRTVVMVLHDLNQAAQYADYLISVLDGKIYNAGTPEDVFTQPFFREVFGLECCIMRSPIDQKPMCLPTGLCPKLRAK
6. MGHHHHHHSHMASPSKAVIVPGNGGGDVTTHGWYGWVKKELEKIPGFQCLAKNMPDPITARESIWLPFMETELHCDEKTIIIGHSSGAIAAMRYAETHRVYAIVLVSAYTSDLGDENERASGYFTRPWQWEKIKANCPYIVQFGSTDDPFLPWKEQQEVADRLETKLHKFTDCGHFQNTEFHELITVVKSLLKVPA

a:
1: not soluble; 2: soluble; 3: not soluble; 4: not soluble; 5: not soluble; 6: not soluble
